- Tested on: M17-SYNwt cells
- Assay notes: α-synuclein cytotoxicity assay (LDH leakage from paraquat-treated M17-SYNwt cells)
- Format: cell-based, human
- Condition set: Table 2; inhibition of synuclein toxicity at most effective concentration relative to untreated paraquat cells
Property name: % inh. (percentage inhibition) (%)

- Smiles text: "CC(=O)NCCc1ccc(S(=O)(=O)N2CCN(c3nc(-c4ccccc4)cs3)CC2)cc1"
  Value: 46
- Smiles text: "Cc1ccc(S(=O)(=O)N2CCN(c3nc(-c4ccccc4)cs3)CC2)cc1"
  Value: 72
- Smiles text: "COc1cccc(-c2csc(N3CCN(S(=O)(=O)c4ccc(F)cc4)CC3)n2)c1"
  Value: 90
- Smiles text: "COc1cccc(Cc2csc(N3CCN(S(=O)(=O)c4ccc(NC(C)=O)cc4)CC3)n2)c1"
  Value: 91

----------
- System: M17-SYNwt cells
- Assay notes: α-synuclein cytotoxicity assay (LDH leakage from paraquat-treated M17-SYNwt cells)
- Type: cell-based, human
- Condition set: Table 2; inhibition of synuclein toxicity at most effective concentration relative to untreated paraquat cells
Decide using % inh. (percentage inhibition): a value greater than or equal to 80% is Condition met, a smaller one is Condition not met.

- Smiles text: "COc1ccc(-c2csc(N3CCN(S(=O)(=O)c4ccc(OC)c(OC)c4)CC3)n2)cc1"
  Group: "Condition not met"
- Smiles text: "COc1ccc(-c2csc(N3CCN(S(=O)(=O)N4CCCC4)CC3)n2)cc1"
  Group: "Condition not met"
- Smiles text: "Cc1ccc(-c2csc(N3CCN(S(=O)(=O)N4CCCC4)CC3)n2)cc1"
  Group: "Condition met"
- Smiles text: "COc1ccc(S(=O)(=O)N2CCN(c3nc(Cc4ccc5c(c4)OCO5)cs3)CC2)cc1"
  Group: "Condition not met"
- Smiles text: "COc1cccc(Cc2csc(N3CCN(S(=O)(=O)c4ccc(C)cc4)CC3)n2)c1"
  Group: "Condition met"
- Smiles text: "COc1ccc(-c2csc(N3CCN(S(=O)(=O)c4ccc5c(c4)OCCO5)CC3)n2)cc1"
  Group: "Condition met"
- Smiles text: "COc1ccc(S(=O)(=O)N2CCN(c3nc(Cc4ccccc4OC)cs3)CC2)cc1"
  Group: "Condition not met"

----------
- Tested on: M17-SYNwt cells
- Assay notes: α-synuclein cytotoxicity assay (LDH leakage from paraquat-treated M17-SYNwt cells)
- Type: cell-based, human
- Condition set: Table 2; inhibition of synuclein toxicity at most effective concentration relative to untreated paraquat cells
Decide using % inh. (percentage inhibition): a value greater than or equal to 90% is 1, a smaller one is 0.

- Smiles text: "COc1ccccc1-c1csc(N2CCN(S(=O)(=O)c3cccc4c3ccn4C)CC2)n1"
  Group: 0
- Smiles text: "COc1cccc(Cc2csc(N3CCN(S(=O)(=O)c4cn(C)cn4)CC3)n2)c1"
  Group: 0
- Smiles text: "COc1cccc(Cc2csc(N3CCN(S(=O)(=O)c4ccc5c(c4)OCO5)CC3)n2)c1"
  Group: 0
- Smiles text: "COc1ccc(S(=O)(=O)N2CCN(c3nc(Cc4cccc(C#N)c4)cs3)CC2)cc1"
  Group: 0
- Smiles text: "COc1cccc(Cc2csc(N3CCN(S(=O)(=O)c4c(C)n[nH]c4C)CC3)n2)c1"
  Group: 1
- Smiles text: "COc1cccc(Cc2csc(N3CCN(S(=O)(=O)c4cccnc4)CC3)n2)c1"
  Group: 0
- Smiles text: "O=S(=O)(c1cccs1)N1CCN(c2nc(-c3ccc(Cl)cc3)cs2)CC1"
  Group: 1
- Smiles text: "COc1ccc(S(=O)(=O)N2CCN(Cc3nc(Cc4cccc(OC)c4)cs3)CC2)cc1"
  Group: 1
- Smiles text: "COc1ccc(F)cc1S(=O)(=O)N1CCN(c2nc(-c3ccc(C)cc3)cs2)CC1"
  Group: 1
- Smiles text: "COc1ccc(S(=O)(=O)N2CCN(c3nc(-c4ccncc4)cs3)CC2)cc1"
  Group: 1

Reference source: patent US8722681B2
